- Tested on: OV-1063
- test_name: Methylene blue assay of cell survival
- Format: cell-based, human
- applied_conditions: Table 8B; read-out: IC50 (μM), 72 hr OV-1063
assay_readout: log10 IC50 (log10 of the value in µM)

1) CCCCCCCCCCCCC/C=C/[C@@H](O)[C@H](CO)NC(=O)CCC 0.60
2) CCCCCCCCCCCCC/C=C/[C@@H](O)[C@H](CO)NC(=O)CCCCCCC 1.28
3) CCCCCCCCCCCCC/C=C/[C@@H](O)[C@H](CO)NC(C)=O 1.40
4) CCCCCCCCCCCCC/C=C/[C@@H](O)[C@H](CO)NC(=O)CCCCCCCCCCCCCCC 1.95
5) CCCCCCCCCCCCC/C=C/[C@@H](O)[C@H](CO)NC(=O)CCCCC 0.36
